- protocol.notes: physchem
- condition: water
metric: solubility

Prompt line: Return solubility (reported value) for this compound: CCCCC1(CCCC)CS(=O)(=O)c2ccc(N(C)C)cc2[C@@H](c2ccc(OCc3ccc(C[N+]45CCN(CC4)CC5)cc3)cc2)[C@H]1O [maralixibat chloride]
Response line: > 100 mg/mL
